Please go through the items and note down their pKd.
# system_name: T1, human CD3 E&D complex protein (Sino Biological Inc., CT026H0323H) (human, UniProt P07766 23-126; P04234 22-105)
# T1 construct: bought heterodimer; also called human CD3 protein (CT026H0323H)
# assay_details: BLI, antibody on sensor
Field pKd (float): negative decimal logarithm of the concentration in molar.

Field request: pKd | item: hzsp34.105 (antibody, human IgG1, lambda, L234A L235A, V domains shown, CDR mutant of hzsp34.24; IgG1 L234A L235A, lambda) VH: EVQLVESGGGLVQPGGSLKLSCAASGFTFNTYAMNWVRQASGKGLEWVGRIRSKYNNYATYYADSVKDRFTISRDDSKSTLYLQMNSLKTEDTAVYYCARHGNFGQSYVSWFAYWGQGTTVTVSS VL: QAVVTQEPSLTVSPGGTVTLTCRSSTGAVTTRNYANWVQQKPGQAPRGLIGGTNKRAPGVPARFSGSLLGDKAALTLLGAQPEDEAEYYCALWYSNLWVFGQGTKLTVLG
8.89

Field request: pKd | item: hzsp34.103 (antibody, human IgG1, lambda, L234A L235A, V domains shown, CDR mutant of hzsp34.24; IgG1 L234A L235A, lambda) VH: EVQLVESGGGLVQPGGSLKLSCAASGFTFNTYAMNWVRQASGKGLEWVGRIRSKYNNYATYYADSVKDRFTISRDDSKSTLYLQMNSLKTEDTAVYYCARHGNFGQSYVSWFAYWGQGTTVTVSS VL: QAVVTQEPSLTVSPGGTVTLTCRSSTGAVGTSNYANWVQQKPGQAPRGLIGGTNKRAPGVPARFSGSLLGDKAALTLLGAQPEDEAEYYCALWYSNLWVFGQGTKLTVLG
8.87

Field request: pKd | item: sp34 (antibody, human IgG1, lambda, L234A L235A, V domains shown, mouse variable regions on human IgG1 L234A L235A and lambda constant regions; also called chimeric antibody sp34; mouse sp34) VH: EVQLVESGGGLVQPKGSLKLSCAASGFTFNTYAMNWVRQAPGKGLEWVARIRSKYNNYATYYADSVKDRFTISRDDSQSILYLQMNNLKTEDTAMYYCVRHGNFGNSYVSWFAYWGQGTLVTVSS VL: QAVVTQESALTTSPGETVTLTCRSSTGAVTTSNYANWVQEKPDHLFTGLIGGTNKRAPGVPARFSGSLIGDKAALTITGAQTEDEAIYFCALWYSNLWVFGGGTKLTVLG
9.20

Field request: pKd | item: hzsp34.110 (antibody, human IgG1, lambda, L234A L235A, V domains shown, CDR mutant of hzsp34.24; IgG1 L234A L235A, lambda) VH: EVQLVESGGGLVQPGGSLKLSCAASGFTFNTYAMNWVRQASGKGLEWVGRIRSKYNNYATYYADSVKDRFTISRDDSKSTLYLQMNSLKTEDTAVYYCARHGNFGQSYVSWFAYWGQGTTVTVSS VL: QAVVTQEPSLTVSPGGTVTLTCRSSTGAVTTSNYANWVQQKPGQAPRGLIGGTNKRAPGVPARFSGSLLGDKAALTLLGAQPEDEAEYYCALWYSGLWVFGQGTKLTVLG
9.02

Field request: pKd | item: hzsp34.102 (antibody, human IgG1, lambda, L234A L235A, V domains shown, CDR mutant of hzsp34.24; IgG1 L234A L235A, lambda) VH: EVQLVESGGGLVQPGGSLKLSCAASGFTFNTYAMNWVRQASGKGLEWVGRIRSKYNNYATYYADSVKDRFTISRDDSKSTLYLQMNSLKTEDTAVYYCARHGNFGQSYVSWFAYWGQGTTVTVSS VL: QAVVTQEPSLTVSPGGTVTLTCGSSTGAVTTSNYANWVQQKPGQAPRGLIGGTNKRAPGVPARFSGSLLGDKAALTLLGAQPEDEAEYYCALWYSNLWVFGQGTKLTVLG
8.77
